# System: UACC-257 melanoma
# assay-explanation: NCI tumour cell line growth inhibition, 48 h
result-type: TGI (µM)
Numbers only, in µM.

Example compounds with recorded TGI:
{"columns": ["chemical-string", "target-system", "result-type", "unit-label", "value"],
 "data": [
  ["CN(C)CCNC(=O)c1ccc(Cl)c2cc3ccccc3nc12", "UACC-257 melanoma", "TGI", "µM", 2.64],
  ["O=C(O)c1ccccc1N=Nc1ccc2oc(=O)c(C(=O)Nc3ccccc3)cc2c1", "UACC-257 melanoma", "TGI", "µM", 59.4]
]}

Batch request: TGI per item, same order as input.
1. NCCCN1CCN(CCCNc2nc3ccccc3c3[nH]c4ccccc4c23)CC1
2. COc1ccc2c(c1)c(-c1ccc(-c3cn(C)c4ccc(OC)cc34)[nH]1)cn2C
3. COc1ccc(-c2ccc(-c3ccc(C(=N)N)cn3)o2)cc1Cl
4. CCc1ccc2nccc(NCCCN(C)C)c2c1[N+](=O)[O-]

*A*
5.72
38.7
4.85
81.3

###

Please provide measured TGI for the entries that follow.
# Test system: SNB-75 CNS
# assay-explanation: NCI tumour cell line growth inhibition, 48 h

Example compounds with recorded TGI:
{"columns": ["compound", "target-system", "TGI"],
 "data": [
  ["COC(=O)[C@]12CC[C@@H](C)[C@H](C)[C@@H]1C1=CC[C@@H]3[C@@]4(C)C(C=O)=C[C@@](C)(COS(C)(=O)=O)C4[C@H](O)C[C@@]3(C)[C@]1(C)CC2 (some centres undefined)", "SNB-75 CNS", "8.86 µM"],
  ["O=C(NC1C2CC3CC(C2)CC1C3)/C(Cl)=C1/Sc2ccccc2NC1=O (centres undefined)", "SNB-75 CNS", "> 100 µM"],
  ["COc1ccc(-c2ccc(-c3ccc(C(=N)N)cn3)o2)cc1Cl", "SNB-75 CNS", "3.51 µM"],
  ["Cc1ccc(S(=O)(=O)n2ccc(-c3ccc4ccn(S(=O)(=O)c5ccc(C)cc5)c4c3)c2)cc1", "SNB-75 CNS", "> 100 µM"],
  ["Clc1ccc(CNc2nccc(-c3cnn4ncccc34)n2)cc1", "SNB-75 CNS", "12.8 µM"]
]}

Batch request: TGI per item, same order as input.
1. CCOc1nccc2c1nc(-c1nonc1N)n2CC
2. COc1cc(CCN(C)C)cc(OC)c1OC
3. O=C(O)CNC(=O)c1ccc2cc(C(=O)N3CC(CCl)c4ccc([N+](=O)[O-])cc43)[nH]c2c1 (centres undefined)
4. COc1nc2c(nc(N)n2C2OCC(O)C(O)C2O)c(=O)n1C (centres undefined)

*A*
1: > 25 µM; 2: > 100 µM; 3: > 100 µM; 4: > 100 µM

###

Please provide measured TGI for the entries that follow.
# Test system: NCI-H23 lung
# assay-explanation: NCI tumour cell line growth inhibition, 48 h

Example compounds with recorded TGI:
{"columns": ["compound", "TGI"],
 "data": [
  ["Nc1nccc2c1ncn2C1OC(CO)C(O)C1O (centres undefined)", "> 100 µM"],
  ["COc1ccc(Cn2cc3c(c2-c2cc(OC)c(OC)c(OC)c2)CCc2cnoc2-3)cc1N", "> 100 µM"],
  ["O=C1CS[C@@](CC(c2ccc(Cl)cc2)c2ccc(Cl)cc2)(c2ccc(Cl)cc2)N1", "> 100 µM"],
  ["CC(NC(=O)C(=O)N/N=C1\\C[C@@H](c2ccccc2)Nc2ccccc21)c1ccccc1 (some centres undefined)", "> 100 µM"],
  ["CCOC(=O)C1=C(Nc2ccc(Br)cc2)OC/C1=N\\NC(=O)c1ccccc1O", "33.1 µM"]
]}

Batch request: TGI per item, same order as input.
1. O=[N+]([O-])c1ccc(N2N=C(c3ccc4ccccc4c3O)CC2c2ccc(Cl)cc2)c([N+](=O)[O-])c1 (centres undefined)
2. COc1ccc(C2SCC(=O)N2NC(=O)C(C)Oc2ccccc2C)cc1 (centres undefined)

*A*
["> 100 µM", "> 100 µM"]

Batch request: TGI per item, same order as input.
1. O=C(O)CNC(=O)c1ccc2cc(C(=O)N3CC(CCl)c4ccc([N+](=O)[O-])cc43)[nH]c2c1 (centres undefined)
2. O=C(N/N=C/c1ccc(Cl)cc1Cl)c1ccc2nc(-c3ccc(Cl)cc3)[nH]c2c1

*A*
> 100 µM
4.43 µM

###

Please provide measured TGI for the entries that follow.
# Test system: A549 NSCLC
# assay-explanation: NCI tumour cell line growth inhibition, 48 h

Example compounds with recorded TGI:
{"columns": ["compound", "target-system", "TGI"],
 "data": [
  ["CC1CCCc2c1c1ccc3c(O)cccc3c1oc2=O (stereo not given)", "A549 NSCLC", "> 100 µM"],
  ["Cc1cc(N(CCCNc2ccnc3cc(Cl)ccc23)Cc2ccc3c(c2)OCO3)nc(N2CCCCC2)n1", "A549 NSCLC", "7.37 µM"],
  ["Cc1cc(C)c(S(=O)(=O)N(CCc2cccc(Br)c2)Cc2ccc(-c3cccc(S(C)(=O)=O)c3)cc2)c(C)c1", "A549 NSCLC", "> 100 µM"],
  ["COc1c2ccsc2c(OC)c2ccsc12", "A549 NSCLC", "> 100 µM"]
]}

Okay, next one:
*Q* Write down the reported TGI of O=C1/C(=C/c2ccccc2)NC(=S)N1CN1CCCCC1 , test system: A549 NSCLC.
*A* > 100 µM

###

# Tested on: MOLT-4 leukemia
# assay-explanation: NCI tumour cell line growth inhibition, 48 h
Please provide measured TGI for the entries that follow.

{"columns": ["molecule", "target-system", "TGI"],
 "data": [
  ["Cc1ccc2c(C(=O)c3c(C)n(CCN4CCOCC4)c4ccccc34)cccc2c1", "MOLT-4 leukemia", "36.3 µM"],
  ["Cc1cc(N2CCCC2)c([N+](=O)[O-])cc1[N+](=O)[O-]", "MOLT-4 leukemia", "> 100 µM"],
  ["Clc1cc(-c2ccccc2)nc2ccccc12", "MOLT-4 leukemia", "54.6 µM"]
]}

Batch request: TGI per item, same order as input.
1. Nc1c(C(=O)N/N=C/c2ccc(-c3cc(Cl)c(Cl)cc3Cl)o2)cnn1-c1ccnc2c(C(F)(F)F)cccc12
2. O=C(Nc1nc2ccc([N+](=O)[O-])cc2s1)C(=O)C(C(=O)c1ccncc1)C1OC(=O)c2ccccc21 (centres undefined)
3. O=C(CCSc1ccnc2c(C(F)(F)F)cccc12)N/N=C/c1cc(Cl)c(Cl)cc1Cl
4. O=C(O)c1ccccc1N=Nc1ccc2oc(=O)c(C(=O)Nc3ccccc3)cc2c1
5. N#Cc1ccc(Oc2cccc(Oc3ccccc3)c2)cc1C#N
6. NC(CC(O)(c1ccccc1)c1ccccc1)c1ccccc1S (centres undefined)

*A*
1: > 100 µM; 2: > 100 µM; 3: 98.8 µM; 4: > 100 µM; 5: > 100 µM; 6: 59.6 µM

###

# System: MALME-3M melanoma
# assay-explanation: NCI tumour cell line growth inhibition, 48 h
result-type: TGI (µM)
Give bare numbers, in µM.

{"columns": ["compound", "target-system", "value"],
 "data": [
  ["Cc1c(O)c(OC2OC(CO)C(O)C(O)C2O)cc2c1C=C[C@@H]1[C@@]2(C)C(=O)C[C@]2(C)[C@@H]([C@@](C)(O)C(=O)CCC(C)(C)O)[C@H](O)C[C@@]12C (some centres undefined)", "MALME-3M melanoma", 50]
]}

Okay, next one:
*Q* Consider the compound shown here: O=C1CS[C@@](CC(c2ccc(Cl)cc2)c2ccc(Cl)cc2)(c2ccc(Cl)cc2)N1 What is its recorded TGI?
*A* 82.6

###

Please provide measured GI50 for the entries that follow.
# System: SF-295 CNS
# assay-explanation: NCI tumour cell line growth inhibition, 48 h

{"columns": ["chemical-string", "value"],
 "data": [
  ["COc1ccc2c(c1)c(-c1ccc(-c3cn(C)c4ccc(OC)cc34)[nH]1)cn2C", "4.59 µM"],
  ["Cc1cc(C)c(S(=O)(=O)N(CCc2cccc(Br)c2)Cc2ccc(-c3cccc(S(C)(=O)=O)c3)cc2)c(C)c1", "> 100 µM"],
  ["COc1cc(F)c(/C=C/c2cc(/C=C/c3cc(OC)c(OC)cc3F)n(-c3cc(F)cc(F)c3)n2)cc1OC", "2.97 µM"]
]}

*Q* Consider the molecule shown here: C[C@@H](COCCC(=O)N1CCN(c2ncc(C(F)(F)F)cn2)CC1)Nc1cn[nH]c(=O)c1C(F)(F)F What is its recorded GI50?
*A* 19.5 µM

###

# Test system: MCF7 breast
# assay-explanation: NCI tumour cell line growth inhibition, 48 h; in the data active = GI50 below about 0.43 µM; inactive = the rest
Answer with one of the outcomes y (active), n (inactive)

As a guide, the following entries are already answered.
{"columns": ["compound", "class-assignment"],
 "data": [
  ["CCN(CC)CCOC(=O)Cc1cccc2c(=O)cc(-c3ccccc3)oc12", "n"],
  ["CCOc1nccc2c1nc(-c1nonc1N)n2CC", "n"],
  ["COC(=O)[C@H](C)NC(=O)[C@@H](OC)[C@@H]1Cc2cc3cc(OC4CC(OC5CC(O)C(O)C(C)O5)C(O)C(C)O4)c(C)c(O)c3c(O)c2C(=O)[C@H]1OC1CC(OC2CC(OC3CC(C)(O)C(O)C(C)O3)C(O)C(C)O2)C(O)C(C)O1 (stereo partly drawn)", "y"],
  ["Nc1c(C(=O)N/N=C/c2ccc(-c3cc(Cl)c(Cl)cc3Cl)o2)cnn1-c1ccnc2c(C(F)(F)F)cccc12", "n"],
  ["CC(C)C[C@H](NC(=O)CCn1ccc2ncccc2c1=O)B(O)O", "n"],
  ["C[C@@H](COCCC(=O)N1CCN(c2ncc(C(F)(F)F)cn2)CC1)Nc1cn[nH]c(=O)c1C(F)(F)F", "n"]
]}

*Q* Hi, sorry to bother you, what did the test record for COc1ccc(Cn2cc3c(c2-c2cc(OC)c(OC)c(OC)c2)CCc2cnoc2-3)cc1N ?
*A* y

*Q* Let us now turn to O=C(CCSc1ccnc2c(C(F)(F)F)cccc12)N/N=C/c1cc(Cl)c(Cl)cc1Cl
*A* n
